# Tested on: OCI-AML2;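 note: after 48 h exposure read by CellTiter-Glo luminescence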
# protocol_text: cell viability relative to vehicle control; higher = less cytotoxic
# details: 10 µM; SRSF2 genotype: P95H/wt
Where a name gives a salt, the structure may show the parent alone.
Threshold check on cell viability: strictly below 90% is satisfied; on or above 90% is not satisfied.

| compound | assigned_category |
| --- | --- |
| N#CC=C1C=CC(O)C(O)C1OC1OC(CO)C(O)C(O)C1O (configuration not stated) [Lithospermoside] | not satisfied |
| Cn1cc(C2=C(c3cn(C4CCN(Cc5ccccn5)CC4)c4ccccc34)C(=O)NC2=O)c2ccccc21 | not satisfied |
| CCC(=O)O[C@H]1CC[C@H]2[C@@H]3CC[C@H]4CC(=O)[C@H](C)C[C@]4(C)[C@H]3CC[C@]12C [Drostanolone Propionate] | satisfied |
| c1csc(-c2ccc(-c3cccs3)s2)c1 [2,2':5',2''-Terthiophene] | satisfied |
| CN1C2CC(O)CC1C1OC12 (configuration not stated) [Scopine] | not satisfied |
| C[C@H]1CC[C@@H]2N(C1)C[C@H]1[C@@H]3C[C@H]4[C@@H](CC(=O)[C@H]5C[C@@H](O)CC[C@@]54C)[C@@H]3CC[C@H]1[C@]2(C)O [Imperialine] | not satisfied |
| Cc1cccc([C@H](C)c2c[nH]cn2)c1C [Dexmedetomidine HCl (Precedex)] | not satisfied |
| C=C[C@H]1CN2CC[C@H]1C[C@H]2[C@H](O)c1ccnc2ccccc12 [Cinchonidine] | not satisfied |
| CNC(C)Cc1ccccc1OC (configuration not stated) [Methoxyphenamine Hydrochloride] | not satisfied |
| C[C@@H]1CCC=C2C(=O)C[C@H]3OOC(C)(C)[C@H]3[C@]21C [Nardosinone] | not satisfied |
| CC(C)N(CCC(C(N)=O)(c1ccccc1)c1ccccn1)C(C)C (configuration not stated) [disopyramide phosphate] | not satisfied |
| C/C(=C\c1csc(C)n1)[C@@H]1C[C@@H]2O[C@@H]2CCC[C@H](C)[C@H](O)[C@@H](C)C(=O)C(C)(C)[C@@H](O)CC(=O)O1 [Epothilone A] | satisfied |
| NC(=O)CN1CCCC1=O [Piracetam] | not satisfied |
| C/C=C(\C)C(=O)N[C@@H](c1ccccc1)[C@@H](O)C(=O)O[C@H]1C[C@@]2(O)[C@@H](OC(=O)c3ccccc3)[C@@H]3[C@]4(OC(C)=O)CO[C@@H]4C[C@H](O)[C@@]3(C)C(=O)[C@H](OC(C)=O)C(=C1C)C2(C)C [Cephalomannine] | satisfied |
| Cc1ccccc1-n1c(Cn2ncc3c(N)ncnc32)nc2cccc(C)c2c1=O | satisfied |
| COC1=C[C@@H]2[C@@H]3Cc4ccc(OC)c(O)c4[C@]2(CCN3C)CC1=O [Sinomenine (Cucoline)] | not satisfied |
| Cc1sc2c(c1C)C(c1ccc(Cl)cc1)=NC(CC(N)=O)c1nnc(C)n1-2 (configuration not stated) | satisfied |
| O=[N+]([O-])c1ncc[nH]1 [Azomycin (2-Nitroimidazole)] | not satisfied |
| ClC(Cl)=C(c1ccc(Cl)cc1)c1ccc(Cl)cc1 | not satisfied |
| CCNc1nc(Cl)nc(NC(C)C)n1 [Atrazine] | not satisfied |
| N[C@@H]1C[C@H]1c1ccccc1 [Tranylcypromine (2-PCPA) HCl] | not satisfied |
| C[C@H]1CCC/C=C/[C@@H]2C[C@H](O)C[C@H]2[C@H](O)/C=C/C(=O)O1 [Brefeldin A] | satisfied |
| CC(C)=CCCC(C)(O)C1CCC2(C)C1C(O)CC1C3(C)CCC(O)C(C)(C)C3C(OC3OC(CO)C(O)C(O)C3O)CC12C [20(S)-Ginsenoside Rh1] | not satisfied |
| CC(=O)O[C@H]1C[C@@H]2CC[C@@H]3[C@H](CC[C@@]4(C)[C@H]3C[C@H]([N+]3(C)CCCCC3)[C@@H]4OC(C)=O)[C@@]2(C)C[C@@H]1[N+]1(C)CCCCC1 [Pancuronium dibromide] | not satisfied |
| C#C[C@]1(O)C=C[C@H]2[C@@H]3CCC4=CC(=O)CC[C@@H]4[C@H]3CC[C@@]21CC [Gestodene] | not satisfied |
| CC(C)(C)[C@]1(O)CC2OC(=O)CC23C(=O)OC2OC(=O)[C@H](O)C231 (some centres not stated) [Bilobalide] | not satisfied |
| CC(O)(CS(=O)(=O)c1ccc(F)cc1)C(=O)Nc1ccc(C#N)c(C(F)(F)F)c1 (configuration not stated) [Bicalutamide (Casodex)] | not satisfied |
| O=C1C=CC[C@@H]2[C@H]3CCCN4CCC[C@@H](CN12)[C@@H]34 [Sophocarpine] | not satisfied |

The values you see were collected from the supplement of paper PMC10981050.
